Sourced from ChEMBL document CHEMBL1201862

# Tested on: SK-MEL-2
# PROTOCOL: NCI tumour cell line growth inhibition, 48 h
The source made the active and inactive calls. No stated cut-off is given here; in the data, active = GI50 up to about 1.1 µM and inactive = higher.
Outcomes: true (1) (active), false (0) (inactive)

[[record]]
compound = "COC(=O)/C=C/c1cc(O)c2c(c1)[C@H](C(=O)OC)[C@@H](c1ccc(O)c(O)c1)O2"
study_system = "SK-MEL-2"
assigned_class = "true (1)"

[[record]]
compound = "NCCCOCC(=O)O"
study_system = "SK-MEL-2"
assigned_class = "false (0)"

[[record]]
compound = "CO[C@H]1C[C@@H]2CC[C@@H](C)[C@@](O)(O2)C(=O)C(=O)N2CCCC[C@H]2C(=O)O[C@H]([C@H](C)C[C@@H]2CC[C@@H](OC(=O)C(C)(CO)CO)[C@H](OC)C2)CC(=O)[C@H](C)/C=C(\\C)[C@@H](O)[C@@H](OC)C(=O)[C@H](C)C[C@H](C)/C=C/C=C/C=C/1C"
study_system = "SK-MEL-2"
assigned_class = "true (1)"

[[record]]
compound = "Nc1nc(N)c(-c2ccccc2)c(C(=O)Nc2ccccc2)n1"
study_system = "SK-MEL-2"
assigned_class = "false (0)"

[[record]]
compound = "COC(=O)c1ccccc1/N=C(/NC1CCCCCC1)NS(=O)(=O)c1ccc(C)cc1"
study_system = "SK-MEL-2"
assigned_class = "false (0)"

[[record]]
compound = "Nc1c(-c2ccc(Cl)cc2Cl)[n+]([O-])c2ccccc2[n+]1[O-]"
study_system = "SK-MEL-2"
assigned_class = "false (0)"

[[record]]
compound = "COc1ccc(Cc2c(-c3ccc(C)cc3)n[nH]c(=O)c2C2C(=O)N(c3ccccc3)N=C2c2ccccc2)cc1 (centres undefined)"
study_system = "SK-MEL-2"
assigned_class = "false (0)"

[[record]]
compound = "CC(=O)OC1CC2(C)C(=CC1C1SCCS1)CCC1C2CCC2(C)C(OC(C)=O)CCC12 (centres undefined)"
study_system = "SK-MEL-2"
assigned_class = "false (0)"

[[record]]
compound = "O=C(O)C(O)(c1ccc(-c2ccccc2)cc1)c1ccc(-c2ccccc2)cc1"
study_system = "SK-MEL-2"
assigned_class = "false (0)"

